Cited source for all entries: PubChem BioAssay (NCI)

# measurement.description: NCI Yeast Anticancer Drug Screen. Data for the wt2 strain (AID 169);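 note: 0% = growth of vehicle-treated yeast cultures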
# condition: S. cerevisiae wt2 strain growth inhibition; at 100.0 µM
About 79,000 compounds went through this panel and 15% of them were active in at least one assay; those are over-represented in the sample as a whole. The source made the active and inactive calls. Cut-off read from the data, not from the text of the source: active = growth inhibition above about 70%; inactive = the rest.
Hi! Could you answer with just one of these? active, inactive

>>> group("COc1ccc(NC(=O)CC2SC(=Nc3ccccc3C)NC2=O)c([N+](=O)[O-])c1 (centres undefined)")
"active"

Task: GET /call?item= COC(=O)CC1(O)C(/C=C/c2ccccc2)C(C(=O)OC)C(=O)C(C(=O)OC)C1C(=O)OC (centres undefined) returns the recorded outcome of this test.
Result: inactive

###

Hi there, I'd appreciate the recorded growth inhibition for every entry that follows.
# measurement.description: NCI Yeast Anticancer Drug Screen. Data for the wt2 strain (AID 169);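 note: 0% = growth of vehicle-treated yeast cultures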
# condition: S. cerevisiae wt2 strain growth inhibition; at 11.0 µM; stronger effect = higher value
About 79,000 compounds went through this panel and 15% of them were active in at least one assay; those are over-represented in the sample as a whole.
Numbers only, in %.

>>> reading("CCOC1=C/C(=N\\Nc2ccc([N+](=O)[O-])cc2)CCC1")
7
>>> reading("Cc1cccc2c1nc1ccc(Cl)cc1[n+]2C")
92

// each compound listed below needs its growth inhibition
1. CCOC(=O)[C@H]1Nc2ccc(OC)cc2C2c3ccccc3CC21 (some centres not stated)
2. CCCC(=O)Oc1ccc(/C=N/NC(N)=S)nc1
3. CC1OC(O[C@H]2/C=C/C=C/C=C/C=C/C=C/C=C/C=C/[C@H](C)[C@@H](O)[C@@H](C)[C@H](C)OC(=O)C[C@H](O)C[C@H](O)CC[C@@H](O)[C@H](O)C[C@H](O)C[C@]3(O)C[C@H](O)[C@@H](C(=O)O)[C@H](C2)O3)C(O)C(N)C1O (some centres not stated)
4. COc1ccc([N+](=O)[O-])c2c(NCCCN(C)C)c3ccccc3nc12

Result:
1: -7; 2: -6; 3: 96; 4: 5

// each compound listed below needs its growth inhibition
1. CCCCC/C(=C(\C#N)C(=O)OCC)c1ccccc1
2. Nc1ncnc2c1ncn2C1OC(CO)CC1O (configuration not stated)
3. CCN(CC)CCOc1cc(C)c2cc(Cc3ccccc3)ccc2n1
4. CCOC(=O)c1cc([N+](=O)[O-])c(Sc2ncnc3nc[nH]c23)c([N+](=O)[O-])c1

Result:
[-3, 13, 2, 2]

// each compound listed below needs its growth inhibition
1. CC(C)=NOC(=O)Nc1ccc(Cl)cc1
2. Cn1c(-c2ccc(/C=N\N3CCN(/N=C/c4ccc(-c5c[n+]6ccccc6n5C)cc4)CC3)cc2)c[n+]2ccccc12

Result:
-21
-37

// each compound listed below needs its growth inhibition
1. O=C(/C=C/c1cc(Cl)cc(Cl)c1O)c1cccc(O)c1
2. CCOC(=O)COc1c(OC)cc(C2C3=C(COC3=O)Oc3cc4c(cc32)OCO4)cc1OC (configuration not stated)
3. c1ccc2c(c1)sc1c3cnccc3ccc21

Result:
89
1
25

// each compound listed below needs its growth inhibition
1. CCC(C)OC(=O)Nc1ccc(C)c(NC(=O)OC(C)CC)c1 (configuration not stated)
2. CCn1c(O)c(C=Nc2ccccc2)s/c1=N/Nc1nc(-c2ccccc2)cs1
3. CC(C)CCCC(C)C1CCC2C3CCC4=CC(=O)/C(=C\O)CC4(C)C3CCC12C (configuration not stated)

Result:
-2
-1
2

// each compound listed below needs its growth inhibition
1. CCO/C(C)=C(/C#N)C(N)=S
2. CCOC(=O)/C(=C\c1ccc(C#N)cc1)C(C)=O
3. CCCCc1ccc(-n2c(C)c(COC(=O)NC)c(COC(=O)NC)c2C)cc1
4. CCc1c(Cl)c(C)cc(O)c1Cl

Result:
[0, 18, 5, -26]
